assayed target: NEU1 (Homo sapiens, UniProt Q99519)
Construct: made in house; host or cells: HEK293 (lentiviral transduction), crude lysate
procedure summary: IC50 inhibition assay using 4MU-NANA as the substrate, NEU1
Type: biochemical
experimental context: 4MU-NANA as the substrate; read-out: IC50 NEU1
measured parameter: IC50

Solved cases (4 shown):
INSERT INTO results (molecule, value_observed) VALUES
  ('CC(=O)N[C@H]1[C@H]([C@H](O)[C@H](O)Cn2cc(-c3ccc(C(=O)O)cc3)nn2)OC(C(=O)O)=C[C@@H]1NC(=O)NCCC(=O)O', '> 500 µM'),
  ('CCCCC(=O)N[C@H]1C=C(C(=O)O)O[C@@H]([C@H](O)[C@H](O)CO)[C@@H]1NC(C)=O [25b]', '> 500 µM'),
  ('CC(=O)N[C@H]1[C@H]([C@H](O)[C@H](O)CO)OC(C(=O)O)=C[C@@H]1NC(=O)C1CCC1 [25d]', '> 500 µM'),
  ('O=C(Cn1cc(-c2ccc(F)cc2)nn1)N[C@@H]1C(O)C=C(C(=O)O)OC1C(O)C(O)CO (some centres unmarked)', '> 500 µM');

Now take the following molecule into account.
Ask: Give the measured IC50 of CC(=O)N[C@@H]1C(O)C=C(C(=O)O)OC1C(O)C(O)Cn1cc(-c2ccc(-c3ccccc3)cc2)nn1 (some centres unmarked) .
Result: > 500 µM
